Assay: Liver Microsome Stability Assay (rat)
Condition details: rat liver microsomes, with NADPH, 1.0 uM compound
Observable: Liver Microsome Stability (Multiple Species): Rat - % Remaining after 30 min w/NADPH (%)

CN(C)c1cccc(-c2csc(NC(=O)c3cccn3Cc3ccncc3)n2)c1 [Compound A76] | 4.99
O=C(Nc1nc(C2C3CN(c4ccccc4)CC32)cs1)c1cccn1Cc1ccncc1 (stereo not shown) [Compound E36] | 1.49

[1] CC(C)c1ccc(/C=C/c2csc(NC(=O)c3cccn3Cc3cc(F)nc(F)c3)n2)nc1 [Compound B87]
[2] O=C(Nc1nc(/C=C/c2ccc3c(n2)CCCC3)cs1)c1cccn1Cc1ccnc(F)c1 [Compound B60]
So which one has the bigger Liver Microsome Stability (Multiple Species): Rat - % Remaining after 30 min w/NADPH here, 1 or 2 ? Lab log: write the label of the selected item as the result.
2

----------
Reported 24 hr Dox Inducible TNFaFLGluc 293FRT/TO: TNF/PD1 values follow for various compounds
Test system: TNFα-FL/Gaussia Luciferase
Assay: Dox Induced TNFα-FL-Gluc Assay
Format: cell-based
Condition details: ratio of TNFaFLGluc IC50 to PD1ssGluc IC50

CC(C)n1cnc(/C=C/c2csc(NC(=O)c3cccn3Cc3cc(F)nc(F)c3)n2)c1 [Compound B68] | >71.9
Cc1cnc(/C=C/c2csc(NC(=O)c3cccn3Cc3ccncc3)n2)o1 [Compound B35] | >53.7
CC(C)n1cc(/C=C/c2csc(NC(=O)c3cccn3Cc3ccnc(F)c3)n2)nc1C#N [Compound B93] | >36.4

Lookup: 24 hr Dox Inducible TNFaFLGluc 293FRT/TO: TNF/PD1 / TNFα-FL/Gaussia Luciferase / O=C(Nc1nc(/C=C/c2cn3ccccc3n2)cs1)c1cccn1Cc1ccncc1 [Compound B50]
>73.7

Next record, please: CC(C)c1cc(/C=C/c2csc(NC(=O)c3cccn3Cc3ccnc(F)c3)n2)nn1C [Compound B96]
>82.3

Same thing, different compound: CC1CCCn2cnc(/C=C/c3csc(NC(=O)c4cccn4Cc4ccnc(F)c4)n3)c21 (stereo not shown) [Compound B102]
>681

----------
Assay: Liver Microsome Stability Assay (human)
Condition details: human liver microsomes, with NADPH, 1.0 uM compound
Observable: Liver Microsome Stability (Multiple Species): Human - % Remaining after 30 min w/NADPH (%)

These solved cases illustrate the format of a correct answer.
C[C@@H](CC#N)Cn1cccc1C(=O)Nc1nc([C@H]2CCCN2c2ccccc2)cs1 | 12.8
O=C(Nc1nc([C@H]2CCCN2c2ccccc2)cs1)c1cccn1CC1COC1 | 31.5
COCCOc1ccc(N2CCC[C@@H]2c2csc(NC(=O)c3cccn3Cc3ccnc(F)c3)n2)cc1 | 30.6
O=C(Nc1nc([C@H]2CCCN2c2ccccc2)cs1)c1cccn1CCCc1c[nH]nn1 | 3.25
CN(C)C(=O)c1ccc(N2CCC[C@@H]2c2csc(NC(=O)c3cccn3Cc3ccncc3)n2)cc1 | 0.05
CC(C)(C)c1nc(/C=C/c2csc(NC(=O)c3cccn3Cc3ccncc3)n2)co1 | 0.7
CS(=O)(=O)N1CC(Oc2ccc(N3CCC[C@@H]3c3csc(NC(=O)c4cccn4Cc4ccnc(F)c4)n3)cc2)C1 | 15.1
CC(=O)Nc1cc(F)c(N2CCC[C@@H]2c2csc(NC(=O)c3cccn3Cc3ccnc(F)c3)n2)c(F)c1 | 1.42

[1] CC(=O)Nc1c(F)cc(N2CCC[C@@H]2c2csc(NC(=O)c3cccn3Cc3ccnc(F)c3)n2)cc1F
[2] CN1C(=O)OCC1/C=C/c1csc(NC(=O)c2cccn2Cc2ccncc2)n1 (stereo not shown)
Could you point out whether the larger Liver Microsome Stability (Multiple Species): Human - % Remaining after 30 min w/NADPH belongs to 1 or to 2 ? To answer, give the label that identifies your chosen option.
1

----------
System: TNFα-FL/Gaussia Luciferase
Assay: Dox Induced TNFα-FL-Gluc Assay
Assay type: cell-based
Condition details: ratio of TNFaFLGluc IC50 to PD1ssGluc IC50
Observable: 24 hr Dox Inducible TNFaFLGluc 293FRT/TO: TNF/PD1

CC1CCn2cnc(/C=C/c3csc(NC(=O)c4cccn4Cc4ccnc(F)c4)n3)c2C1 (stereo not drawn) | >103

Find the recorded 24 hr Dox Inducible TNFaFLGluc 293FRT/TO: TNF/PD1 belonging to O=C(Nc1nc(/C=C/c2cnccn2)cs1)c1cccn1Cc1ccncc1 and report it.
>94.5

----------
24 hr Dox Inducible IL2FLGluc 293FRT/TO: IL2/PD1 values by entry
Test system: IL-2-FL/Gaussia Luciferase
Assay: Dox Induced IL2-FL-Gluc Assay
Type: cell-based
Condition details: ratio of IL2FLGluc IC50 to PD1ssGluc IC50
Excerpt: Flp-In 293 T-REx™ cells were transfected with pcDNA™5/FRT/TO plasmid inserted with cDNA encoding Gaussia Luciferase fused to the 3′ end of cDNA encoding full length IL-2 (amino acids 1-153). Transfected cells were selected for resistance to the selectable markers Hygromycin and Blasticidin to create a stable cell line that contained the IL-2-FL/Gaussia Luciferase cDNA insert whose expression was regulated under the T-REx™ system. […]
Just the number.

Solved entries:
Cc1cn(C(C)C)nc1/C=C/c1csc(NC(=O)c2cccn2Cc2ccncc2)n1 | 14
CNC(=O)c1ccc(N2CCC[C@@H]2c2csc(NC(=O)c3cccn3Cc3ccncc3)n2)cc1 | 2.5

I have this compound here, CC(=O)N1CC(OC(=O)Nc2ccc(N3CCC[C@@H]3c3csc(NC(=O)c4cccn4Cc4ccnc(F)c4)n3)cc2)C1 , and I need its recorded 24 hr Dox Inducible IL2FLGluc 293FRT/TO: IL2/PD1.
3.4

Now the compound CC(C)Oc1ccc(N2CCC[C@@H]2c2csc(NC(=O)c3cccn3Cc3ccnc(F)c3)n2)cc1
1.7

Input CC(=O)N1CCOC(/C=C/c2csc(NC(=O)c3cccn3Cc3ccncc3)n2)C1 (centres unmarked)
1.3

----------
System: multiple myeloma cell line NCI-H929
Assay: H929 Cell Viability Assay
Format: cell-based, human
Condition details: Homo sapiens, NCI-H929, 48 h, NCI-H929 cells, Celltiter-Glo
Recorded EC50 values for a group of molecules are listed next.

Some solved entries appear below for comparison.
O=C(Nc1nc([C@H]2CCCN2c2ccccc2)cs1)c1cccn1Cc1cccnc1 [Compound E20] | 24.6 µM
O=C(Nc1nc([C@H]2CCCN2c2ccc(CCO)cc2)cs1)c1cccn1Cc1ccnc(F)c1 [Compound A78] | 0.495 µM
O=C(Nc1nc([C@H]2CCCN2c2ccccc2)cs1)c1cccn1Cc1ccnnc1 [Compound C102] | 3.98 µM
O=C(O)CCCn1cccc1C(=O)Nc1nc([C@H]2CCCN2c2ccccc2)cs1 [Compound C13] | > 25 µM
COc1ccc(O[C@@H]2CCC[C@H](c3csc(NC(=O)c4cccn4Cc4ccncc4)n3)C2)nc1 [Compound E39] | 8.43 µM
O=C(Nc1nc(/C=C/c2coc(C3CC3)n2)cs1)c1cccn1Cc1ccncc1 [Compound B40] | > 25 µM
CN(C)C(=O)CCCn1cccc1C(=O)Nc1nc([C@H]2CCCN2c2ccccc2)cs1 [Compound C61] | > 25 µM
CC(C)c1cc(/C=C/c2csc(NC(=O)c3cccn3Cc3ccnc(F)c3)n2)nn1C [Compound B96] | 20.7 µM

Param readout= EC50; system= multiple myeloma cell line NCI-H929; entry= Cc1cccc2nc(/C=C/c3csc(NC(=O)c4cccn4Cc4ccnc(F)c4)n3)cn12 [Compound B70] ; returns value.
> 25 µM

Then this molecule: O=C(Nc1nc([C@H]2CCCN2c2ccccc2)cs1)c1cccn1CC1CCS(=O)(=O)CC1 [Compound C37]
> 25 µM

Item: CN1c2ccccc2CCC1/C=C/c1csc(NC(=O)c2cccn2Cc2ccncc2)n1 (centres unmarked) [Compound B8]
24.2 µM

Okay, and Cc1cnccc1Cn1cccc1C(=O)Nc1nc([C@H]2CCCN2c2ccccc2)cs1 [Compound A53] ?
20.6 µM

Moving on to CN(C)C(=O)CCn1cccc1C(=O)Nc1nc([C@H]2CCCN2c2ccccc2)cs1 [Compound C59]
> 25 µM

What about this molecule? Cc1cccc2nc(/C=C/c3csc(NC(=O)c4cccn4Cc4ccncc4)n3)cn12 [Compound B77]
> 25 µM

Also need O=C(Nc1nc([C@H]2CCCN2c2ccccc2)cs1)c1cccn1Cc1ccc(F)cc1 [Compound C119] , thanks.
> 25 µM

Next molecule up: CC(C)n1cnc(-c2cccc(-c3csc(NC(=O)c4cccn4Cc4ccnc(F)c4)n3)c2)c1 [Compound A167]
> 25 µM

// query: Cc1c(/C=C/c2csc(NC(=O)c3cccn3Cc3ccnc(F)c3)n2)ncn1C(C)CO (centres unmarked) [Compound B118]
> 25 µM

Same thing, different molecule: O=C(Nc1nc([C@H]2CCCN2c2ccccc2)cs1)c1cccn1Cc1ccccc1 [Compound C5]
> 25 µM

What do you get for O=C(Nc1nc([C@H]2CCCN2c2ccccc2)cs1)c1cccn1CC1CCC(F)(F)C1 (some centres unmarked) [Compound C123] ?
> 25 µM

// next record O=C(O)CCn1cccc1C(=O)Nc1nc([C@H]2CCCN2c2ccccc2)cs1 [Compound C12]
> 25 µM
